For each entry below, report its ELISA signal relative to background value.
Target: T1, FX activation peptide 12-mer WKPYDAADLDPT (human)
T1 peptide: WKPYDAADLDPT-biotin
Assay: peptide ELISA
Ends that are not written are not given here.
One number for each entry.

Nb 501A02 (VHH, monovalent control Nanobody; also called control Nanobody; not shown: C-terminal FLAG3 and HIS6 tag) VHH: EVQLVESGGGLVQPGGSLRLSCAASGFTFSNYEMSWVRQAPGKGLEWVSDIGSGGGVSTYYADSVKGRFTISRDNAKNTLYLQMNSLKPEDTAMYYCARGWTYGSDGMDYWGKGTLVTVSS = 0.74
Nb 729C08 (VHH, monovalent Nanobody; also called Nb 729008; not shown: C-terminal FLAG3 and HIS6 tag) VHH: EVQLVESGGGVVQPGGSLRLSCAASGFTFSDYAMSWVRQAPGKGLEWVSGITGGGRTYYADSVKGRFTISRDNSKNTLYLQMNSLRPEDTALYYCAAAILTRTRRTYDYWGQGTLVTVSS = 1.08
Nb 701C06 (VHH, monovalent Nanobody; not shown: C-terminal FLAG3 and HIS6 tag) VHH: EVQLVESGGGVVQPGGSLRLSCAASGRTFSTYAMGWFRQAPGKEREFVAAISRRGGRTYYADSVKGRFTISRDNSKNTVYLQMNSLRPEDTALYYCAADATARDGLLDYWGQGTLVTVSS = 0.99
Nb 701B09 (VHH, monovalent Nanobody; also called Nb 701609; not shown: C-terminal FLAG3 and HIS6 tag) VHH: EVQLVESGGGVVQPGGSLRLSCAASGRTFSTYAMGWFRQAPGKEREFVAAISWSGSRTYYADSVKGRFTISRDNSKNTVYLQMNSLRPEDTALYYCAADATPANGELDYWGQGTLVTVSS = 1.14
Nb 702C12 (VHH, monovalent Nanobody; not shown: C-terminal FLAG3 and HIS6 tag) VHH: EVQLVESGGGVVQPGGSLRLSCVASGRTFSRYAMGWFRQAPGKEREFVAAISRRGGSTNYADSVKGRFTISRDNSKNTVYLQMNSLRPEDTALYYCAADYSSGDGYLDYWGQGTLVTVSS = 0.89
Nb 701D07 (VHH, monovalent Nanobody; not shown: C-terminal FLAG3 and HIS6 tag) VHH: EVQLVESGGGVVQPGGSLRLSCAASGGTLSRYAMGWFRQAPGKEREFVAAITRRGSRTYYADSVKGRFTISRDNSKNTVYLQMNSLRPEDTALYYCAADLAPGDYALDYWGQGTLVTVSS = 0.85

Now, please, on to the next binder.
Lookup: # lookup: ELISA signal relative to background of Nb 729A04 (VHH, monovalent Nanobody; not shown: C-terminal FLAG3 and HIS6 tag) VHH: EVQLVESGGGVVQPGGSLRLSCAASGFTFSDYAMSWVRQAPGKGLEWVSGITSGGGRTYYADSVKGRFTISRDNSKNTLYLQMNSLRPEDTALYYCAAVRTLGLRGSYDYWGQGTLVTVSS
Found: 1.2
